# credit: PubChem BioAssay AID652154

# Experiment description: PAX8 transcriptional activity inhibition in RMG-I – RMG-I cells, luciferase, single concentration, primary screen (AID 652154);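 also: luciferase light reporting Pax8 driven TPO promoter activity; plate controls were median of neutral control wells for no effect and mitoxantrone controls for full effect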
# Condition set: RMG-I TPO-luciferase reporter, SteadyGlo, 24 h; at 12.6 µM; active compounds read high
The campaign covered roughly 360,000 compounds. About 4,200 (1.2%) were called active. Many of the other results were omitted from the sample, so actives are more common in it than they were.
Could you please report measured inhibition for the items listed next?
Answers are plain numbers, in %.

The following compounds have reported results that may help.
> print(dat)
                                   compound  observed
1  O=C(CCl)Nc1cccc(CP(=O)(c2ccccc2)c2ccccc2)c1      18.2
2  CCC(=O)Nc1ccc(Nc2nc(Cl)nc(Nc3ccc(NC(=O)CC)cc3)n2)cc1      1.45
3             N#Cc1c(NC(=O)CCCl)sc2c1CCCCC2      60.9
4  Oc1c(Cl)cc(Cl)c(Cl)c1Cc1c(O)c(Cl)cc(Cl)c1Cl       107
5  Brc1ccc(COCCc2cn(Cc3ccccc3)c3ccccc23)cc1     -11.9
6  COc1ccccc1NC(=O)N[C@H]1C=C[C@@H](CC(=O)N[C@@H](C)c2ccccc2)O[C@@H]1CO      4.41
7  CS(=O)(=O)N(Cc1ccc(Cl)cc1)c1ccc(C(=O)NCCSCc2ccco2)cc1      61.6
8  COc1ccc(S(=O)(=O)Nc2ccc3c(c2)C(=O)N([C@@H](C)CO)C[C@@H](C)[C@H](CN(C)C(=O)CCC(F)(F)F)OCCCC[C@H](C)O3)cc1      6.54

Hi there! I need inhibition for each item below, if you can.
1. N#Cc1c(NC(=O)C2CCCO2)sc2c1CCCCC2 (stereo not given)
2. C[C@H]1CN([C@@H](C)CO)C(=O)Cc2cc(NC(=O)NC3CCCCC3)ccc2O[C@H]1CN(C)S(=O)(=O)c1cccs1
3. O=C(CCl)Nc1ccc(Sc2ccc(NC(=O)CCl)cc2)cc1
4. COc1cc(C2CC(=O)Oc3cc(OC)c(OC)c(OC)c32)cc(OC)c1OC (stereo not given)
5. O=C(Nc1cccc([N+](=O)[O-])c1)N1CCc2ccccc2C1
6. CN1c2ccc(-c3cccc(F)c3)cc2[C@@H]2[C@@H](CCN2C(=O)Nc2ccccc2F)[C@@H]1CO

1: -175; 2: 11.1; 3: 87.7; 4: -2.9; 5: -115; 6: 39.3

Hi there! I need inhibition for each item below, if you can.
1. Cc1cc(C)cc(N(CC(=O)NCCSCc2ccco2)S(C)(=O)=O)c1
2. COc1cc(OC)cc(C(=O)NCCSCc2ccco2)c1
3. C[C@H](CO)N1C[C@H](C)[C@H](CN(C)C(=O)CCC(F)(F)F)OCCCC[C@H](C)Oc2ccc(NS(C)(=O)=O)cc2C1=O
4. CNC(=O)C[C@H]1CC[C@@H]2[C@@H](COc3ccc(NC(=O)c4ccc(F)c(F)c4)cc3C(=O)N2C)O1
5. Cc1ccc(NC(=O)O/N=C/c2cccc([N+](=O)[O-])c2)cc1
6. COc1cc(C(=O)CCc2ccc3c(c2)OCO3)cc(OC)c1OC

3.24
3.2
-0.897
-18.3
-64.7
-6.52

###

# Experiment description: PAX8 transcriptional activity inhibition in RMG-I – RMG-I cells, luciferase, single concentration, primary screen (AID 652154);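 also: luciferase light reporting Pax8 driven TPO promoter activity; plate controls were median of neutral control wells for no effect and mitoxantrone controls for full effect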
# Condition set: RMG-I TPO-luciferase reporter, SteadyGlo, 24 h; at 12.6 µM; active compounds read high
Hit rate of the full screen: of about 360,000 compounds, about 4,200 (1.2%) were called active. This excerpt belongs to a sample that is enriched for actives.
Could you please report measured inhibition for the items listed next?

> print(dat)
                            structure.smiles             observed
 1  COCCSc1nnc(NC(=O)CCS(=O)(=O)Cc2ccccc2)s1       65.7% (active)
 2  C[C@H](CO)N1C[C@H](C)[C@H](CN(C)CC2CCCCC2)OCCCC[C@H](C)Oc2ccc(NS(=O)(=O)c3ccc(F)cc3)cc2C1=O     52.9% (inactive)
 3  O=S(=O)(Cc1ccccc1)N1CCCCN2[C@@H](CO)[C@@H](c3ccc(-c4ccc(F)cc4)cc3)[C@@H]2C1     44.5% (inactive)
 4  CC(C)NC(=O)N1[C@H](CO)[C@@H]2c3ccccc3N(C(=O)c3ccccc3F)C[C@@H]21     -9.8% (inactive)
 5  C[C@@H]1CN([C@H](C)CO)C(=O)c2cc(N(C)C)ccc2O[C@@H](C)CCCCO[C@@H]1CN(C)C(=O)CCCN(C)C  -0.0835% (inactive)
 6  CCCN1[C@H](C(=O)N2CCCCC2)[C@@H](CO)[C@@H]2Cn3c(ccc(-c4ccccc4F)c3=O)[C@@H]21    -10.5% (inactive)
 7  COc1ccc(NC(=O)N(C)C[C@H]2OCCCC[C@@H](C)Oc3ccc(NS(=O)(=O)c4ccc(F)cc4)cc3C(=O)N([C@@H](C)CO)C[C@@H]2C)cc1     1.37% (inactive)
 8  O=C(C[C@@H]1C=C[C@H](NC(=O)CN2CCOCC2)[C@@H](CO)O1)NC1CCC1    -5.79% (inactive)
 9   CCOCc1nnc(NC(=O)CCS(=O)(=O)Cc2ccccc2)s1     50.3% (inactive)
10  Cc1c(C)n(Cc2ccc(Cl)cc2)c2ccc(C(=O)NCCCN3CCOCC3)cc12     15.4% (inactive)

Hi there! I need inhibition for each item below, if you can.
1. C[C@@H]1CCCCO[C@@H](CN(C)C(=O)NC2CCCCC2)[C@H](C)CN([C@H](C)CO)C(=O)c2cc(NS(=O)(=O)c3ccc(Cl)cc3)ccc2O1
2. C[C@H]1CCCCO[C@@H](CN(C)C(=O)NC2CCCCC2)[C@@H](C)CN([C@@H](C)CO)C(=O)c2cc(NS(=O)(=O)c3ccc(Cl)cc3)ccc2O1
3. C[C@H]1CCCCO[C@H](CN(C)CC2CCCCC2)[C@@H](C)CN([C@@H](C)CO)C(=O)c2cc(NS(=O)(=O)c3ccc(Cl)cc3)ccc2O1

89.7% (active)
32.2% (inactive)
68.9% (active)

Hi there! I need inhibition for each item below, if you can.
1. C[C@H]1CCCCO[C@@H](CN(C)C(=O)Nc2cccc3ccccc23)[C@@H](C)CN([C@@H](C)CO)C(=O)c2cc(NS(=O)(=O)c3ccc(Cl)cc3)ccc2O1
2. CN1CCN(CCCNC(=O)c2ccc(/C=C3\Oc4ccccc4N(Cc4ccc(Cl)cc4)C3=O)cc2)CC1
3. COC(=O)CSc1nnc(NC(=O)CCc2ccccc2)s1

71.8% (active)
100% (active)
-0.955% (inactive)

###

# Experiment description: PAX8 transcriptional activity inhibition in RMG-I – RMG-I cells, luciferase, single concentration, primary screen (AID 652154);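 also: luciferase light reporting Pax8 driven TPO promoter activity; plate controls were median of neutral control wells for no effect and mitoxantrone controls for full effect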
# Condition set: RMG-I TPO-luciferase reporter, SteadyGlo, 24 h; at 12.6 µM; active compounds read high
The whole screen tested about 360,000 compounds, of which about 4,200 (1.2%) were called active. Many of the other results were omitted from the sample, so actives are more common in it than they were.
Tick yes if inhibition is 30% or greater. Tick no if inhibition is less than 30%.

> print(dat)
                                   compound  qualitative.label
1  COc1ccccc1C#Cc1ccc2c(c1)O[C@H](CN(C)Cc1cccnc1)[C@@H](C)CN([C@H](C)CO)S2(=O)=O                yes
2  C[C@@H]1CN([C@@H](C)CO)S(=O)(=O)c2ccc(/C=C/c3ccccc3)cc2O[C@H]1CN(C)Cc1cccnc1                yes
3  COc1ccc(-c2cc(C(F)(F)F)nc(S(C)(=O)=O)n2)cc1OC                yes

In plain terms: is recorded inhibition at least 30% for C[C@@H]1CN([C@H](C)CO)S(=O)(=O)c2ccc(/C=C/c3ccccc3)cc2O[C@@H]1CN(C)Cc1ccccc1 ?
yes

In plain terms: is recorded inhibition at least 30% for CN(C(=O)CSc1nnc(C2CC2)n1C)C1CCCc2ccccc21 (centres undefined) ?
no

In plain terms: is recorded inhibition at least 30% for CC1Cc2ccccc2N1C(=O)CSc1nnc(C2CC2)n1C (centres undefined) ?
yes

In plain terms: is recorded inhibition at least 30% for COc1ccc(-c2cc(C(=O)N(C)Cc3ccc(OC)c(OC)c3OC)c3ccccc3n2)cc1OC ?
no

In plain terms: is recorded inhibition at least 30% for COCC(=O)Nc1ccc2c(c1)C(=O)N(C)C[C@@H](OC)[C@@H](C)CN(C(=O)Cc1ccccn1)[C@@H](C)CO2 ?
no

In plain terms: is recorded inhibition at least 30% for CC1Cc2ccccc2N1C(=O)CSc1nnc(-c2ccc(S(=O)(=O)N3CCCC3)cc2)n1C (centres undefined) ?
no
